Source of measurements: ChEMBL document CHEMBL3259578

Molecular target: Sigma non-opioid intracellular receptor 1 (Cavia porcellus, UniProt Q60492)
Sequence (Q60492 whole entry): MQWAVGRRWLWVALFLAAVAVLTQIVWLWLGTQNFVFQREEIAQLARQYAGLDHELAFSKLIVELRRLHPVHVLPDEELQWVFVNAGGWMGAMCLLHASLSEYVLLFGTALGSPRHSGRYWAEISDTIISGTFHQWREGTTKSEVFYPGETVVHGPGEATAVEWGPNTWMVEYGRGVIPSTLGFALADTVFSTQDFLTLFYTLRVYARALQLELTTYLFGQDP
Assay: Displacement of (+)-[3H]pentazocine from Dunkin guinea pig brain sigma 1 receptor
Reported property: Ki (nM)
Report only the number, with the unit nM understood.

Recorded results for 3 compounds are shown here.
Nc1ccc2c3c(cccc13)C(=O)N(CCCCCCOc1cccc3c1CCCC3CCCN1CCN(C3CCCCC3)CC1)C2=O (centres undefined) = 156
CN(C)c1ccc2c(c1)C(=O)N(CCCCCCOc1cccc3c1CCCC3CCCN1CCN(C3CCCCC3)CC1)C2=O (centres undefined) = 5.37
O=[N+]([O-])c1ccc(NCCCCCCCCCCOc2cccc3c2CCCC3CCCN2CCN(C3CCCCC3)CC2)c2nonc12 (centres undefined) = 258

Query compound follows.
Qu. // returns reported Ki for input CCN(CC)c1ccc2cc(/C=C/C3=[N+](CCCCCC(=O)NCCCCCCOc4cccc5c4CCCC5CCCN4CCN(C5CCCCC5)CC4)c4ccccc4C3(C)C)c(=O)oc2c1.[Br-] (centres undefined)
Ans. 235

---

Quick reference for Ki among some compounds
Experiment: Displacement of [3H]DTG from Wistar Hannover rat liver sigma 2 receptor
Report only the number, with the unit nM understood.

O=[N+]([O-])c1ccc(NCCCCCCCCCCOc2cccc3c2CCCC3CCCN2CCN(C3CCCCC3)CC2)c2nonc12 (centres undefined) = 31.2
CCN(CC)c1ccc2cc(/C=C/C3=[N+](CCCCCC(=O)NCCCCCCOc4cccc5c4CCCC5CCCN4CCN(C5CCCCC5)CC4)c4ccccc4C3(C)C)c(=O)oc2c1.[Br-] (centres undefined) = 161

Qu. // returns reported Ki for input CN(C)c1ccc2c(c1)C(=O)N(CCCCCCOc1cccc3c1CCCC3CCCN1CCN(C3CCCCC3)CC1)C2=O (centres undefined)
Ans. 6.9

Qu. Please give the result for Nc1ccc2c3c(cccc13)C(=O)N(CCCCCCOc1cccc3c1CCCC3CCCN1CCN(C3CCCCC3)CC1)C2=O (centres undefined) too.
Ans. 6.57

---

Assay: Drug uptake in cytoplasm of human MCF7 cells at 100 to 500 nM after 45 mins by spinning disk confocal microscopy
Format: ADME, cell-based
Details: mcf7, 0.75 h, 0.5 µM
Reported property: Drug uptake

CCN(CC)c1ccc2cc(/C=C/C3=[N+](CCCCCC(=O)NCCCCCCOc4cccc5c4CCCC5CCCN4CCN(C5CCCCC5)CC4)c4ccccc4C3(C)C)c(=O)oc2c1.[Br-] (centres undefined) = Active
CN(C)c1ccc2c(c1)C(=O)N(CCCCCCOc1cccc3c1CCCC3CCCN1CCN(C3CCCCC3)CC1)C2=O (centres undefined) = Active
Nc1ccc2c3c(cccc13)C(=O)N(CCCCCCOc1cccc3c1CCCC3CCCN1CCN(C3CCCCC3)CC1)C2=O (centres undefined) = Active
O=[N+]([O-])c1ccc(NCCCCCCOc2cccc3c2CCCC3CCCN2CCN(C3CCCCC3)CC2)c2nonc12 (centres undefined) = Active
